Test: RP, Waters ACQUITY UPLC BEH C18, 100 × 1 mm, 1.7 µm, 50 °C, 0.3 mL/min, estimated dead time 0.17 min; A: water + 10 mM ammonium bicarbonate; B: 10% water + 90% methanol + 10 mM ammonium bicarbonate; gradient (min/%B) 0/0 15/100 21/100 22/0 30/0
Settings: stereoisomer not certain
Task for the reader: assign each of the following compounds its reported LC retention time.

Below, each entry is followed by its recorded LC retention time result.
Compound | LC retention time
C=C1C(=O)OC2CC[N+]3([O-])CC=C(COC(=O)C(C)(O)C(C)C1C)C23 (stereo not drawn) [Senecivernine N-oxide] | 9.7 min
CCC(C)(c1ccc(O)cc1)c1ccc(O)cc1 [Bisphenol B] | 14.3 min

// for each compound in input: emit LC retention time
1. CCCCCCCCCc1ccc(O)cc1 [4-n-Nonylphenol]
2. CON=C(C(=O)O)c1ccccc1CON=C(C)c1cccc(C(F)(F)F)c1
3. CC1=C2C(=O)C3C(CC=C4CC(O)CCC43C)C2CCC12OC1CC(C)CNC1C2C (stereo not drawn) [Jervine]
4. Oc1ccc(Cl)cc1Cc1ccccc1 [Chlorophene]

Out:
["18.1 min", "14.5 min", "15.2 min", "15.9 min"]

// for each compound in input: emit LC retention time
1. CC1=CC(=O)NS(=O)(=O)O1 [Acesulfame]
2. NC(=O)C1(N2CCCCC2)CCN(CCCC(=O)c2ccc(F)cc2)CC1 [Pipamperone]
3. CC[N+]1([O-])CCCC1CNC(=O)c1cc(S(N)(=O)=O)ccc1OC (stereo not drawn) [Sulpiride N-Oxide]
4. CC(C)(c1cc(Br)c(O)c(Br)c1)c1cc(Br)c(O)c(Br)c1 [Tetrabromobisphenol A]
5. COC(C)C(O)(C(=O)OCC1=CCN2CCC(O)C12)C(C)C (stereo not drawn) [Heliotrine]
6. CC=C(C)C(=O)OC1CCC2(C)C3CCC4C5(O)CC(O)C6(O)C(CN7CC(C)CCC7C6(C)O)C5(O)CC42OC13O (stereo not drawn) [Cevadine]
7. CON=C1CC2(CC3CC(CC=C(C)CC(C)C=CC=C4COC5C(O)C(C)=CC(C(=O)O3)C45O)O2)OC(C(C)=CC(C)C)C1C (stereo not drawn) [Moxidectin]
8. COc1nc(NC(=O)NS(=O)(=O)c2ccccc2C(F)(F)F)nc(C(F)(F)F)n1 [Tritosulfuron]

Out:
2.41 min
14.5 min
6.84 min
14.6 min
11.6 min
16.4 min
19 min
11.9 min

* * *

Experiment: RP, Waters ACQUITY UPLC BEH C18, 100 × 1 mm, 1.7 µm, 50 °C, 0.3 mL/min, estimated dead time 0.17 min; A: water + 0.1% formic acid + 20 mM ammonium formate; B: methanol + 0.1% formic acid + 20 mM ammonium formate; gradient (min/%B) 0/0 15/100 21/100 22/0 30/0
Settings: stereoisomer not certain
Assay metric: LC retention time (min)
One number for each entry, in min.

Below, each entry is followed by its recorded LC retention time result.
Molecule | Assay metric | Numeric readout
O=c1cc(O)c2ccccc2o1 [4-Hydroxycoumarin] | LC retention time | 10.7
CC1=C2C3OC(=O)C(C)C3CCC2(C)C=CC1=O (stereo not drawn) | LC retention time | 11.3
O=NNC1=NCCN1Cc1ccc(Cl)nc1 | LC retention time | 7.84

// for each molecule in input: emit LC retention time
1. O=C(O)C(F)(F)C(F)(F)C(F)(F)C(F)(F)C(F)(F)C(F)(F)C(F)(F)C(F)(F)C(F)(F)F
2. CCOC(=O)C(Cl)Cc1cc(-n2nc(C)n(C(F)F)c2=O)c(F)cc1Cl (stereo not drawn)
3. OC(Cc1ccccc1Cl)(Cn1cncn1)C1(Cl)CC1 (stereo not drawn)
4. CC(c1ccc(O)cc1)c1ccc(O)cc1
5. Cc1cc(C(F)(C(F)(F)F)C(F)(F)F)ccc1NC(=O)c1cccc(I)c1C(=O)NC(C)(C)CS(C)(=O)=O [Flubendiamide]

Out:
[15.9, 15.4, 15, 11.5, 15.4]

* * *

Experiment: RP, Waters ACQUITY UPLC BEH C18, 100 × 1 mm, 1.7 µm, 50 °C, 0.3 mL/min, estimated dead time 0.17 min; A: water + 0.1% formic acid + 20 mM ammonium formate; B: methanol + 0.1% formic acid + 20 mM ammonium formate; gradient (min/%B) 0/0 15/100 21/100 22/0 30/0
Conditions: stereoisomer not certain
Assay metric: LC retention time (min)
Give bare numbers, in min.

Below, each entry is followed by its recorded LC retention time result.
Compound | Numeric readout
Cc1ccc(-c2c(Cl)nc(C#N)n2S(=O)(=O)N(C)C)cc1 | 15
N[C@@H](Cc1ccc(O)cc1)C(=O)O | 6.5
c1ccc2nc3ccccc3cc2c1 | 8.84

// for each compound in input: emit LC retention time
1. CCCN(CCC)CCC
2. CC=C1CC(C)C(C)(O)C(=O)OCC2=CC[N+]3([O-])CCC(OC1=O)C23 (stereo not given) [Senecionine N-oxide]
3. COc1nc(C)nc(NC(=O)NS(=O)(=O)c2ccccc2Cl)n1
4. Nc1cc(Cl)cc(Cl)c1
5. CCCC(C)(C)C(=O)Nc1ccc(Cl)cc1 [Monalide]
6. COC(=O)c1ccccc1S(=O)(=O)NC(=O)N(C)c1nc(C)nc(OC)n1

Out:
1. 6.53
2. 8.82
3. 12.3
4. 17.6
5. 15
6. 12.8

In: Requested read-out: LC retention time. Entry: `CCCN(CCC)CCc1cccc2c1CC(=O)N2`
Out: 8.08

* * *

Experiment: RP, Waters ACQUITY UPLC BEH C18, 100 × 1 mm, 1.7 µm, 50 °C, 0.3 mL/min, estimated dead time 0.17 min; A: water + 0.1% formic acid + 20 mM ammonium formate; B: methanol + 0.1% formic acid + 20 mM ammonium formate; gradient (min/%B) 0/0 15/100 21/100 22/0 30/0
Conditions: stereoisomer not certain
Assay metric: LC retention time (min)
Answers are plain numbers, in min.

Molecule | LC retention time [min]
C=CC1CNC(=S)O1 (stereo not given) | 5
CCc1cnc(C2=NC(C)(C(C)C)C(=O)N2)c(C(=O)O)c1 (stereo not given) | 11.2

// for each molecule in input: emit LC retention time
1. CC12CCC(=O)C=C1C=CC1C2CCC2(C)C1CCC21CCC(=O)O1 (stereo not given)
2. CC1=CC(=O)CC(C)(C)C1
3. COc1cc2nc(N3CCN(C(=O)C4COc5ccccc5O4)CC3)nc(N)c2cc1OC (stereo not given)
4. CCC1C(=O)OCC1Cc1cncn1C (stereo not given)
5. CCC(C(=O)O)C1CCC(C)C(C(C)C(O)C(C)C(=O)C(CC)C2OC3(C=CC(O)C4(CCC(C)(C5CCC(O)(CC)C(C)O5)O4)O3)C(C)CC2C)O1 (stereo not given)
6. CCCN(CCOc1c(Cl)cc(Cl)cc1Cl)C(N)=O
7. CC(C)(c1cc(Br)c(O)c(Br)c1)c1cc(Br)c(O)c(Br)c1

Out:
[14.2, 11.7, 11.6, 4.92, 18.4, 15.9, 16.6]

// for each molecule in input: emit LC retention time
1. CCCCOC(=O)COC(=O)c1ccccc1C(=O)OCCCC [2-Butoxy-oxoethylbutylphthalate]
2. CCCCC(CC)COP(=O)(Oc1ccccc1)Oc1ccccc1 (stereo not given) [2-Ethylhexyldiphenyl phosphate]
3. CC(C)CC(C)Nc1ccc(Nc2ccccc2)cc1 (stereo not given)

Out:
16.2
17.7
13.3

// for each molecule in input: emit LC retention time
1. CC1COc2c(N3CCN(C)CC3)c(F)cc3c(=O)c(C(=O)O)cn1c23 (stereo not given)
2. CC(=O)OC1C(C)OC(n2cc(F)c(N)nc2=O)C1OC(C)=O (stereo not given)
3. Nc1c(Br)cc(Br)cc1CNC1CCC(O)CC1 (stereo not given)
4. CN(C(=O)COc1nc2ccccc2s1)c1ccccc1
5. Cc1ccc(OP(=O)(Oc2ccccc2)Oc2ccc(C)cc2)cc1 [Ditolyl phenyl phosphate]
6. CC(C)OC(=O)NC(C(=O)NC(C)c1nc2ccc(F)cc2s1)C(C)C (stereo not given)

Out:
8.04
9.43
10.6
14.6
14
14.5

* * *

Assay: RP, Waters ACQUITY UPLC BEH C18, 100 × 1 mm, 1.7 µm, 50 °C, 0.3 mL/min, estimated dead time 0.17 min; A: water + 10 mM ammonium bicarbonate; B: 10% water + 90% methanol + 10 mM ammonium bicarbonate; gradient (min/%B) 0/0 15/100 21/100 22/0 30/0
Conditions: stereoisomer not certain
Quick rule: LC retention time of at least 10 min means t, below that means f.

Compound | Discrete label
Cc1c(C(C)C)c(=O)n(-c2ccccc2)n1C | t
O=C(Nc1ccc(F)cc1F)c1cccnc1Oc1cccc(C(F)(F)F)c1 | t
COc1ccc(NC(=O)N(C)C)cc1Cl | t
Cc1cc(=O)oc2cc(N)ccc12 | f
Oc1ccc(Cl)cc1Cl | t
CCCCOC(=O)C=Cc1ccccc1 [Butyl cinnamate] | t
CCCCCCCCCCCC(=O)N(CCO)CCO [Lauryl diethanolamide] | t
CC(C)NCC(O)COc1ccc(CC(N)=O)cc1 (centres undefined) | f

In: Hello, I need to know if CCCCCCCCCCCC[N+](C)(C)[O-] [N,N-Dimethyldodecylamine N-oxide] has measured LC retention time not below 10 min. Thanks!
Out: t

In: Hello, I need to know if `Nc1ccc(Cc2ccc(N)c(Cl)c2)cc1Cl` has measured LC retention time not below 10 min. Thanks!
Out: t

In: Hello, I need to know if `Cc1ccc(C(C)C)c(O)c1` has measured LC retention time not below 10 min. Thanks!
Out: t

In: Hello, I need to know if `CN(CC=CC#CC(C)(C)C)Cc1cccc2ccccc12` has measured LC retention time not below 10 min. Thanks!
Out: t

In: Hello, I need to know if CC(C)CC(C)Nc1ccc(Nc2ccccc2)cc1 (centres undefined) has measured LC retention time not below 10 min. Thanks!
Out: t

In: Hello, I need to know if `COC(=O)c1ccccc1S(=O)(=O)NC(=O)Nc1nc(OC(F)F)cc(OC(F)F)n1` has measured LC retention time not below 10 min. Thanks!
Out: t

In: Hello, I need to know if CC=C1N(C)C(C)CC1(c1ccccc1)c1ccccc1 (centres undefined) has measured LC retention time not below 10 min. Thanks!
Out: t

In: Hello, I need to know if NC(=O)c1c(Cl)cccc1Cl [2,6-Dichlorobenzamide] has measured LC retention time not below 10 min. Thanks!
Out: f

In: Hello, I need to know if CCC1OC(=O)C(C)C(OC2CC(C)(OC)C(O)C(C)O2)C(C)C(OC2OC(C)CC(N(C)C)C2O)C(C)(O)CC(C)C(=O)C(C)C(O)C1(C)O (centres undefined) has measured LC retention time not below 10 min. Thanks!
Out: t

In: Hello, I need to know if `COP(=S)(OC)SCn1nnc2ccccc2c1=O` has measured LC retention time not below 10 min. Thanks!
Out: t

In: Hello, I need to know if `Nc1ccc(Cl)cc1` has measured LC retention time not below 10 min. Thanks!
Out: t
